Property: melting point; scope: individual molecules

Some molecules with recorded melting point:
Nc1ncc2cc(-c3cc(C(F)(F)F)cc(C(F)(F)F)c3)c(N)nc2n1 [Compound 18]	> 300 °C
COc1cc(OC)cc(-c2cc3cnc(NCCCN4CCOCC4)nc3nc2N)c1 [Compound 15]	146 to 148 °C
Nc1ncc2cc(-c3c(F)cccc3F)c(N)nc2n1 [Compound 24]	> 300 °C
Nc1ncc2cc(-c3ccc4c(c3)OCO4)c(N)nc2n1 [Compound 35]	> 300 °C
CC(C)(C)NC(=O)Nc1nc2nc(N)ncc2cc1-c1ccc2c(c1)OCO2 [Compound 36]	> 300 °C
CC(C)(C)NC(=O)Nc1nc2nc(N)ncc2cc1-c1cc(Cl)cc(Cl)c1 [Compound 23]	179 to 182 °C
Nc1ncc2cc(-c3c(F)cccc3Cl)c(N)nc2n1 [Compound 31]	> 300 °C
Nc1nc2nc(NCCCN3CCOCC3)ncc2cc1-c1c(Cl)cccc1Cl [Compound 28]	124 to 127 °C

Now turn to the next molecule.
Any idea what its melting point is? The molecule is COc1cc(OC)cc(-c2cc3cnc(NCCCN(C)C)nc3nc2N)c1 [Compound 17]
92 to 95 °C

====

The compounds below have reported pKd for E. coli DdlB (Escherichia coli).
pKd here is simply -log10 of the concentration when that concentration is written in mol/L.

COc1cc(OC)cc(-c2cc3cnc(N)nc3nc2NC(=O)NC(C)(C)C)c1 [Compound 14]	5.00

Endpoint output: pKd of Nc1ncc2cc(-c3c(Br)cccc3Br)c(N)nc2n1 [Compound 33] . Value?
5.00

====

Below are pKi values recorded for UniProtKB P07862.
// pKi is dimensionless: -log10 of concentration (M)

Nc1ncc2cc(-c3c(Br)cccc3Br)c(N)nc2n1 [Compound 33]	4.42

Field: next compound
API: value(readout=pKi, system=UniProtKB P07862) for record COc1cc(OC)cc(-c2cc3cnc(N)nc3nc2NC(=O)NC(C)(C)C)c1 [Compound 14]
4.51

====

tested on: SM1411 (acrAB deficient derivative of 1411); test: MIC by broth microdilution, SM1411; type: cell-based, E. coli; conditions: with polymyxin B nonapeptide (4 μg/ml)
Each record here notes measured MIC SM1411 +PMBN.

Solved entries:
Nc1ncc2cc(-c3c(Cl)cccc3Cl)c(N)nc2n1	0,5 μg/ml
CC(C)(C)NC(=O)Nc1nc2nc(N)ncc2cc1-c1cc(C(F)(F)F)cc(C(F)(F)F)c1	>256 µg/mL

Given Nc1ncc2cc(-c3c(Br)cccc3Br)c(N)nc2n1 , state its recorded MIC SM1411 +PMBN.
0,25 μg/ml
